tested on: primary rat microglia; test: Cell toxicity (dead cells, size <150 μm2) in coated fibrin (cFib) assay; settings: primary microglia HTS, fibrin stimulation, cell size <150 μm2 as marker of toxicity;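 further: share of dead cells sized under 150 µm2 at 10 µM in fibrin-stimulated microglia HTS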
Counter-ions that a name gives are not always drawn.
Give measured Fibrin % cell toxicity for each item. Keep answers brief.
Could you give me the number in %? Just the number is fine.

Inquiry: Param request: Fibrin % cell toxicity | system primary rat microglia | item C1CCc2nnnn2CC1 [Pentetrazole, Pentylenetetrazol]
Reply text: 1

Inquiry: Param request: Fibrin % cell toxicity | system primary rat microglia | item O=C1CC[C@@H](C(=O)O)N1 [Pidolic Acid]
Reply text: 1

Inquiry: Param request: Fibrin % cell toxicity | system primary rat microglia | item CC(=O)[C@H]1CC[C@H]2[C@@H]3CC=C4C[C@@H](O)CC[C@]4(C)[C@H]3CC[C@]12C [Pregnenolone]
Reply text: 1

Inquiry: Param request: Fibrin % cell toxicity | system primary rat microglia | item CCOc1ccc(NC(C)=O)cc1 [Phenacetin]
Reply text: 1

Inquiry: Param request: Fibrin % cell toxicity | system primary rat microglia | item CC(C)NC(=N)NC(=N)Nc1ccc(Cl)cc1 [Proguanil; Chlorguanide Hydrochloride]
Reply text: 0

* * *

test system: primary rat microglia; assay: Cell toxicity (dead cells, size <150 μm2) in coated fibrin (cFib) assay; settings: primary microglia HTS, fibrin assay, dead cells (size <150 μm2);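 further: share of dead cells sized under 150 µm2 at 10 µM in fibrin-stimulated microglia HTS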
Where a name gives a salt, the structure may show the parent alone.
measuredQuantity: Fibrin % cell toxicity (%)
Could you give me the number in %? Just the number is fine.

Inquiry: For the molecule CC(CN(C)C)CN1c2ccccc2Sc2ccccc21 (stereo not drawn) , report Fibrin % cell toxicity.
Reply text: 1

Inquiry: For the molecule `O=C(Oc1cccc2cccnc12)c1ccccc1` , report Fibrin % cell toxicity.
Reply text: 1

Inquiry: For the molecule `C[C@H]1[C@@H](O)O[C@@H]2O[C@@]3(C)CC[C@H]4[C@H](C)CC[C@@H]1[C@@]24OO3` , report Fibrin % cell toxicity.
Reply text: 0

Inquiry: For the molecule `Nc1ccc2cc3ccc(N)cc3nc2c1` , report Fibrin % cell toxicity.
Reply text: 82

Inquiry: For the molecule `C/C(=C(\CCOP(=O)(O)O)SC(=O)c1ccccc1)N(C=O)Cc1cnc(C)nc1N` , report Fibrin % cell toxicity.
Reply text: 0

Inquiry: For the molecule CC1(C)S[C@@H]2[C@H](NC(=O)[C@H](NC(=O)N3CCNC3=O)c3ccccc3)C(=O)N2[C@H]1C(=O)O [Azlocillin Sodium] , report Fibrin % cell toxicity.
Reply text: 0

Inquiry: For the molecule NS(=O)(=O)c1cc2c(cc1C(F)(F)F)NC(Cc1ccccc1)NS2(=O)=O (stereo not drawn) [Bendrofumethiazide, Bendroflumethiazide] , report Fibrin % cell toxicity.
Reply text: 1

Inquiry: For the molecule `NC(=O)C[S@@+]([O-])C(c1ccccc1)c1ccccc1` , report Fibrin % cell toxicity.
Reply text: 0

Inquiry: For the molecule `COCCCOc1cc(C[C@@H](C[C@H](N)[C@@H](O)C[C@H](C(=O)NCC(C)(C)C(N)=O)C(C)C)C(C)C)ccc1OC` , report Fibrin % cell toxicity.
Reply text: 1

Inquiry: For the molecule COc1cc2nc(N(C)CCCNC(=O)C3CCCO3)nc(N)c2cc1OC.Cl (stereo not drawn) [Alfuzosin Hydrochloride, Alfuzosin] , report Fibrin % cell toxicity.
Reply text: 1

Inquiry: For the molecule NCC[C@H](O)C(=O)N[C@@H]1C[C@H](N)[C@@H](O[C@H]2O[C@H](CN)[C@@H](O)[C@H](O)[C@H]2O)[C@H](O)[C@H]1O[C@H]1O[C@H](CO)[C@@H](O)[C@H](N)[C@H]1O.O=S(=O)(O)O.O=S(=O)(O)O [Amikacin Sulfate] , report Fibrin % cell toxicity.
Reply text: 1

Inquiry: For the molecule `Nc1cc(-c2ccncc2)c[nH]c1=O` , report Fibrin % cell toxicity.
Reply text: 1

Inquiry: For the molecule `CN1CCC(=C2c3ccccc3CCc3cccnc32)CC1` , report Fibrin % cell toxicity.
Reply text: 1

Inquiry: For the molecule Nc1nc(NC2CC2)c2ncn([C@H]3C=C[C@@H](CO)C3)c2n1 [Abacavir Sulfate] , report Fibrin % cell toxicity.
Reply text: 1

Inquiry: For the molecule `CCN(CCCc1ccccc1)CCCc1ccccc1` , report Fibrin % cell toxicity.
Reply text: 0

Inquiry: For the molecule `Nc1ccc(C(=O)NCC(=O)O)cc1` , report Fibrin % cell toxicity.
Reply text: 1

Inquiry: For the molecule CC(C)(C)NCC(O)COc1cccc2c1CC(O)C(O)C2 (stereo not drawn) , report Fibrin % cell toxicity.
Reply text: 4

Inquiry: For the molecule NCC(O)CC(=O)O (stereo not drawn) [Aminohydroxybutyric Acid] , report Fibrin % cell toxicity.
Reply text: 1

* * *

tested on: primary rat microglia; assay: Cell toxicity (dead cells, size <150 μm2) in LPS assay; settings: primary microglia HTS, LPS stimulation; decreased size (<150 μm^2) as marker of toxicity
Counter-ions that a name gives are not always drawn.
measuredQuantity: LPS % cell toxicity (%)
Could you give me the number in %? Just the number is fine.

Inquiry: For the molecule `CN(C)C(=O)Oc1cccc([N+](C)(C)C)c1` , report LPS % cell toxicity.
Reply text: 0

Inquiry: For the molecule `CCn1cc(C(=O)O)c(=O)c2cc(F)c(N3CCNCC3)nc21` , report LPS % cell toxicity.
Reply text: 12

Inquiry: For the molecule CCC(=O)O[C@]1(C(=O)CCl)[C@@H](C)C[C@H]2[C@@H]3CCC4=CC(=O)C=C[C@]4(C)[C@@]3(F)[C@@H](O)C[C@@]21C [Clobetasol propionate, reference compound] , report LPS % cell toxicity.
Reply text: 3

Inquiry: For the molecule C[C@@H]1C[C@H]2[C@@H]3CCC4=CC(=O)C=C[C@]4(C)[C@@]3(F)[C@@H](O)C[C@]2(C)[C@H]1C(=O)CO [Desoximetasone] , report LPS % cell toxicity.
Reply text: 3

Inquiry: For the molecule `CCCc1nc(C(C)(C)O)c(C(=O)OCc2oc(=O)oc2C)n1Cc1ccc(-c2ccccc2-c2nnn[nH]2)cc1` , report LPS % cell toxicity.
Reply text: 0

Inquiry: For the molecule CCN(CC)C(=O)c1cccnc1 [Nikethamide] , report LPS % cell toxicity.
Reply text: 0

Inquiry: For the molecule CC(=O)Nc1ncc([N+](=O)[O-])s1 [Nithiamide] , report LPS % cell toxicity.
Reply text: 1

Inquiry: For the molecule CCOC(=O)CC(SP(=S)(OC)OC)C(=O)OCC (stereo not drawn) , report LPS % cell toxicity.
Reply text: 0

Inquiry: For the molecule NC[C@H](O)c1ccc(O)c(O)c1 [Norepinephrine] , report LPS % cell toxicity.
Reply text: 0

Inquiry: For the molecule `CCN(CC)CCOc1ccc2c(c1)C(=O)c1cc(OCCN(CC)CC)ccc1-2` , report LPS % cell toxicity.
Reply text: 1

Inquiry: For the molecule Cc1cccc(C)c1N=C1NCCCS1 [Xylazine hydrochloride, reference compound] , report LPS % cell toxicity.
Reply text: 2

Inquiry: For the molecule CCC(Cc1c(I)cc(I)c(N)c1I)C(=O)O (stereo not drawn) [Iopanic acid, reference compound] , report LPS % cell toxicity.
Reply text: 0

Inquiry: For the molecule `CCOc1ccccc1OCCN[C@H](C)Cc1ccc(OC)c(S(N)(=O)=O)c1` , report LPS % cell toxicity.
Reply text: 2

Inquiry: For the molecule `CCN(CC)CCNC(=O)c1ccc(NC(C)=O)cc1.Cl` , report LPS % cell toxicity.
Reply text: 1

Inquiry: For the molecule CC(=O)Oc1ccccc1C(=O)Nc1ncc([N+](=O)[O-])s1 [Nitazoxanide] , report LPS % cell toxicity.
Reply text: 0

Inquiry: For the molecule CCOC(=O)C1=C[C@@H](OC(CC)CC)[C@H](NC(C)=O)[C@@H](N)C1 [Oseltamivir Phosphate] , report LPS % cell toxicity.
Reply text: 0

Inquiry: For the molecule `C[CH2][Hg][S]c1ccccc1C(=O)O` , report LPS % cell toxicity.
Reply text: 95

Inquiry: For the molecule Cc1ccccc1N1C(=O)c2cc(S(N)(=O)=O)c(Cl)cc2NC1C (stereo not drawn) , report LPS % cell toxicity.
Reply text: 0

Inquiry: For the molecule CC(=O)N[C@H]1[C@H]([C@H](O)[C@H](O)CO)OC(O)(C(=O)O)C[C@@H]1O (stereo partly drawn) , report LPS % cell toxicity.
Reply text: 1

Inquiry: For the molecule `Cc1ccc(Nc2c(F)cccc2Cl)c(CC(=O)O)c1` , report LPS % cell toxicity.
Reply text: 0

Inquiry: For the molecule CCCCC(=O)O[C@]1(C(=O)CO)[C@@H](C)C[C@H]2[C@@H]3CCC4=CC(=O)C=C[C@]4(C)[C@@]3(F)[C@@H](O)C[C@@]21C [Betamethasone valerate, reference compound] , report LPS % cell toxicity.
Reply text: 1

Inquiry: For the molecule `Cc1cnc(NC(=O)C2=C(O)c3ccccc3S(=O)(=O)N2C)s1` , report LPS % cell toxicity.
Reply text: 0

Inquiry: For the molecule COc1cc(/C=C/C(=O)N2CCCCCCC2)cc(OC)c1OC [Cinoctramide] , report LPS % cell toxicity.
Reply text: 1

Inquiry: For the molecule CC(=O)Oc1cccc(C)c1 [Meta-cresyl Acetate] , report LPS % cell toxicity.
Reply text: 0

Inquiry: For the molecule CCCCC1=NC2(CCCC2)C(=O)N1Cc1ccc(-c2ccccc2-c2nnn[nH]2)cc1 [Irbesartan, reference compound] , report LPS % cell toxicity.
Reply text: 1

Inquiry: For the molecule CC1(C)O[C@@H]2C[C@H]3[C@@H]4CCC5=CC(=O)C=C[C@]5(C)[C@H]4[C@@H](O)C[C@]3(C)[C@]2(C(=O)CO)O1 [Desonide] , report LPS % cell toxicity.
Reply text: 5

Inquiry: For the molecule CC(=O)O[C@]1(C(C)=O)CC[C@H]2[C@@H]3C=C(Cl)C4=CC(=O)CC[C@]4(C)[C@H]3CC[C@@]21C [Chlormadinone acetate, reference compound] , report LPS % cell toxicity.
Reply text: 0

Inquiry: For the molecule NCCC(O)(P(=O)(O)O)P(=O)(O)O [Pamidronate] , report LPS % cell toxicity.
Reply text: 0

Inquiry: For the molecule CC(=O)OC(C)C[N+](C)(C)C (stereo not drawn) , report LPS % cell toxicity.
Reply text: 0

Inquiry: For the molecule `COc1ccc(C(=O)c2ccc(C)cc2)c(O)c1` , report LPS % cell toxicity.
Reply text: 0

Inquiry: For the molecule CC[n+]1c(-c2ccccc2)c2cc(N)ccc2c2ccc(N)cc21 [Homidium Bromide] , report LPS % cell toxicity.
Reply text: 9

Inquiry: For the molecule O=P(O)(O)C(O)(Cc1cccnc1)P(=O)(O)O [Risedronate sodium, reference compound] , report LPS % cell toxicity.
Reply text: 0

Inquiry: For the molecule CN(C)CCCOc1nn(Cc2ccccc2)c2ccccc12 [Benzydamine hydrochloride, reference compound] , report LPS % cell toxicity.
Reply text: 6
